test system: HT29 cells; test: In vitro cytotoxicity, XTT assay, HT29; type: cell-based, human; details: ratio of CC50/IC50 between mammal cells and trophozoites
readout name: Selectivity index (SI), CC50 HT29 / IC50 trophozoites

                                   molecule  test_target  quantitative_readout
0  O=[N+]([O-])c1ccc2nc([S+]([O-])Cc3ccccn3)[nH]c2c1 (stereo not shown)   HT29 cells                    37
1  Cc1c(OCC(F)(F)F)ccnc1C[S+]([O-])c1nc2ccccc2[nH]1 (stereo not shown) [Lansoprazole, reference compound]   HT29 cells                    12
2  COc1c(C)cnc(C[S+]([O-])c2nc3ccccc3[nH]2)c1C (stereo not shown)   HT29 cells                    53
3  Cc1c(OCC(F)(F)F)ccnc1C[S+]([O-])c1nc2ccc([N+](=O)[O-])cc2[nH]1 (stereo not shown)   HT29 cells                    36

---

Listed here are compounds together with their documented viability at 48 h, 500 µM.
assay: In vitro cytotoxicity, XTT assay, HT29; format: cell-based, human; conditions: human, HT-29 cells; 500 µM; read-out: Viability of HT-29 cells (lowered to)
readout name: viability at 48 h, 500 µM

                                   compound  result
0  Cc1c(OCC(F)(F)F)ccnc1C[S+]([O-])c1nc2ccc([N+](=O)[O-])cc2[nH]1 (centres unmarked)    ~50%
1  O=[N+]([O-])c1ccc2nc([S+]([O-])Cc3ccccn3)[nH]c2c1 (centres unmarked)    ~50%

---

assay: in vitro; assay type: cell-based; settings: human, Caco-2; ratio of CC50/IC50 between mammal cells and trophozoites; read-out: Selectivity index (SI), CC50 Caco-2 / IC50 trophozoites
Listed here are molecules together with their documented selectivity ratio at 48 h.
readout name: selectivity ratio at 48 h

>>> df
                                   molecule               readout_name  result
0  O=[N+]([O-])c1ccc2nc([S+]([O-])Cc3ccccn3)[nH]c2c1 (stereo not shown)  selectivity ratio at 48 h      45
1  COc1c(C)cnc(C[S+]([O-])c2nc3ccccc3[nH]2)c1C (stereo not shown)  selectivity ratio at 48 h      88
2  Cc1c(OCC(F)(F)F)ccnc1C[S+]([O-])c1nc2ccc([N+](=O)[O-])cc2[nH]1 (stereo not shown)  selectivity ratio at 48 h      39
3  Cc1c(OCC(F)(F)F)ccnc1C[S+]([O-])c1nc2ccccc2[nH]1 (stereo not shown) [Lansoprazole, reference compound]  selectivity ratio at 48 h      59

---

biological target: triosephosphate isomerase (TPI) (Giardia intestinalis, UniProt P36186); construct: His-tag (TEV-cleavable) (cleaved yes); made in house; experiment: Inactivation of recombinant TPI enzyme with compounds; format: biochemical; conditions: 500 µM compound, 2 h at 37 °C
Sequence (P36186 whole entry): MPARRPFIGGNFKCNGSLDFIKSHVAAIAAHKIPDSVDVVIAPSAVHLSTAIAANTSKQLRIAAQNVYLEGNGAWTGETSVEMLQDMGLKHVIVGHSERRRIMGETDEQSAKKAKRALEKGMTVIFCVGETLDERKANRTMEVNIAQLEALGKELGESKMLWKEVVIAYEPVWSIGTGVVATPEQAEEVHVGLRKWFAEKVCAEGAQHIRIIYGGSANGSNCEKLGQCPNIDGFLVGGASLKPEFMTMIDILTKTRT
Listed here are molecules together with their documented Loss (reduction) of TPI enzyme activity.
readout name: Loss (reduction) of TPI enzyme activity (%)

>>> print(df.to_string())
                                   molecule                             readout_name  quantitative_readout
0  O=[N+]([O-])c1ccc2nc([S+]([O-])Cc3ccccn3)[nH]c2c1 (centres unmarked) [O2N-BZM7]  Loss (reduction) of TPI enzyme activity                   100
1  [O-][S+](Cc1ccccn1)c1nc2ccccc2[nH]1 (centres unmarked) [H-BZM1]  Loss (reduction) of TPI enzyme activity                    25
2  Cc1c(OCC(F)(F)F)ccnc1C[S+]([O-])c1nc2ccc([N+](=O)[O-])cc2[nH]1 (centres unmarked) [O2N-BZM9]  Loss (reduction) of TPI enzyme activity                   100
3  COc1c(C)cnc(C[S+]([O-])c2nc3ccccc3[nH]2)c1C (centres unmarked) [H-BZM2]  Loss (reduction) of TPI enzyme activity                   100
4  Cc1c(OCC(F)(F)F)ccnc1C[S+]([O-])c1nc2ccccc2[nH]1 (centres unmarked) [Lansoprazole, reference compound]  Loss (reduction) of TPI enzyme activity                   100
